- test target: human TREK-1 (Homo sapiens)
- Construct: expressed in transfected cells
- test description: TREK-1 Thallium (Tl+) flux assay, Method 1
- Format: cell-based
- condition parameters: TREK-1 Thallium (Tl+) flux assay; no *^12 (Method 2) mark on these rows
pIC50: −log10 of the molar value.
measurement name: pIC50

Known results for compounds:
• Cc1cc(C#Cc2ccccc2)cnc1NC(=O)c1c(Cl)cnn1C[C@@H]1CCN(C(=O)OC(C)(C)C)C[C@H]1F = 6.43
• Cc1cc(C#Cc2ccccc2)cnc1NC(=O)c1c(Cl)cnn1CCC1CCN(C(=O)OC(C)(C)C)CC1 = 6.24
• O=C(Nc1ncc(C#Cc2ccccc2)cc1F)c1c(Cl)cnn1C[C@@H]1C[C@H]2CC[C@@H]1O2 (racemic) = 6.21
• Cc1cc(C#Cc2ccc(F)cc2)cnc1NC(=O)c1c(Cl)cnn1C1CCN(C(=O)C(C)C)C1 (stereo not shown) = 6.24
• Cc1cc(C#Cc2ccc(F)cc2)cnc1NC(=O)c1c(Cl)cnn1CC1(C#N)CCN(C(=O)OC(C)(C)C)CC1 = 6.35
• Cc1cc(C#Cc2ccccc2)cnc1NC(=O)c1c(Cl)cnn1CC1(C)CCN(C(=O)OC(C)(C)C)CC1 = 6.27

[a] Cc1cc(C#Cc2ccc(F)cc2)cnc1NC(=O)c1c(Cl)cnn1CC1(F)CCN(C(=O)C2CC2C)CC1 (stereo not shown)
[b] Cc1cc(C#Cc2ccccc2)cnc1NC(=O)c1c(Cl)cnn1CC1CCOC1 (stereo not shown)
Problem: Please indicate which has the smaller reported pIC50: a , or b . To answer, give the label that identifies your chosen option.
Result: a

* * *

- test target: human TREK-1 (Homo sapiens, UniProt O95069)
- Construct: expressed in transfected cells
- Sequence (O95069 whole entry): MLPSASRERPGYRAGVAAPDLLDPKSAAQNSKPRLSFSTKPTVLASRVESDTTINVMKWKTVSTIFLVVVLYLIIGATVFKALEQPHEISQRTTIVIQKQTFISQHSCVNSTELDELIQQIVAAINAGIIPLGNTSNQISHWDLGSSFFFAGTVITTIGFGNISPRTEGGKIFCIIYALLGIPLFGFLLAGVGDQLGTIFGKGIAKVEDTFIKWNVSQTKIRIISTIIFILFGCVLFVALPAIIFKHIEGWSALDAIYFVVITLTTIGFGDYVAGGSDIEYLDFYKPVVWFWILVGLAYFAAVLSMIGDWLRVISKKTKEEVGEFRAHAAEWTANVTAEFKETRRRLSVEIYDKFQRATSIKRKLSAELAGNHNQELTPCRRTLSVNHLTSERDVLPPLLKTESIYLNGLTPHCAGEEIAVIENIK
- test description: TREK-1 Thallium (Tl+) flux assay, Method 1
- Type: cell-based
- condition parameters: TREK-1 Thallium (Tl+) flux assay; values without footnote *12 are Method 1
pIC50: −log10 of the molar value.
measurement name: pIC50

* CC(=O)N1CCC(Cn2ncc(Cl)c2C(=O)Nc2ncc(C#Cc3ccccc3)cc2C)C(F)(F)C1 (stereo not drawn) | 6.74
* CC(=O)N1CCCC(Cn2ncc(Cl)c2C(=O)Nc2ncc(C#Cc3ccccc3)cc2F)C1 (stereo not drawn) | 6.57

[P] CC(=O)N1CCCC(Cn2ncc(Cl)c2C(=O)Nc2ncc(C#Cc3ccccc3)cc2C)C1 (stereo not drawn)
[Q] CC(=O)N[C@H]1CC[C@@H](n2ncc(Cl)c2C(=O)Nc2ncc(C#Cc3ccccc3)cc2C)CC1
Problem: Name the one with the greater pIC50 value, either P or Q as given. To answer, give the label that identifies your chosen option.
Result: Q
(Q: 6.89, P: 6.57)

* * *

- test target: human TREK-1 (Homo sapiens)
- Construct: expressed in transfected cells
- test description: TREK-1 Thallium (Tl+) flux assay, Method 1
- Assay type: cell-based
- condition parameters: read-out: Tl^+ Assay % inhibition at 30 uM (Minus value indicates activation of TREK-1); at 30 uM; CHO-K1 cells stably expressing human TREK-1; minus = activation
measurement name: inhibition at 30 µM (%)

• Cc1cc(C#Cc2ccccc2)cnc1NC(=O)c1nn(CC2COCCO2)cc1Cl (stereo not shown) [Compound 449] = -99
• Cc1cc(C#Cc2cccc(F)c2)cnc1NC(=O)c1nn(CCC2CCN(C(=O)C3CC3)CC2)cc1Cl [Compound 450] = -94
• Cc1cc(C#Cc2ccc(F)cc2)cnc1NC(=O)c1nn(CCC2CCN(C(=O)C(C)C)CC2)cc1Cl [Compound 446] = -108
• Cc1cc(C#Cc2ccccc2)cnc1NC(=O)c1nn(CC2CCOCC2)cc1Cl [Compound 444] = -116
